Recorded cytotoxicity at 10 µM values for a group of compounds are listed next.
Protocol: Toxicity liver stage against HepG2, at 10uM
Assay type: cell-based
Parameters: test concentration 10 uM, cell line HepG2-A16-CD81EGFP
Condition details: human, HepG2-A16-CD81EGFP cells; read-out: INHIBITION
Numeric only. Scale: %

>>> test_result("Cc1noc([C@@H]2C[C@H]3OCC[C@H]3N(Cc3cc(C)c(C)o3)C2)n1")
-72.2
>>> test_result("Cc1nc(C2CCN(C(=O)c3ccn(C)n3)CC2)c2sccn12")
-4.66
>>> test_result("CS(=O)(=O)NC1CCCN(C(=O)c2cccnc2)C1 (stereo unspecified)")
-3.75
>>> test_result("c1cnn(CC2CN(CCCOc3ccc4c(c3)OCO4)CCO2)c1 (stereo unspecified)")
0.568
>>> test_result("CN1CCC(c2n[nH]c3ncccc23)C1 (stereo unspecified)")
-20.1

Okay, next one:
IN: Find the recorded cytotoxicity at 10 µM belonging to CCOCCN1CCN(CC(=O)N2CCCC2)CC1C (stereo unspecified) and report it.
OUT: -3.82
